test: binders of probe aHhip on microarray, primary screen, stem cell growth factor project, biochemical, small-molecule microarray, fluorescence 635/667 (AID 1087); conditions: higher = more signal;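 further: score merges spot fluorescence at 667nm with spot signal to noise ratio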
The entries below are paired with their reported composite z-score.

For orientation, consider the following solved cases.
INSERT INTO measurements (compound, measured_endpoint, reading) VALUES
  ('COCCCNC(=O)[C@@]1(CCC(=O)OC(C)(C)C)N=C(c2ccc(OCCCO)cc2)O[C@H]1c1ccccc1CN=[N+]=[N-]', 'composite z-score', 0.238),
  ('COCC(=C=CC[C@@H](O)c1ccc(CO)o1)CCO', 'composite z-score', 0.011),
  ('COCCOC(=O)N1C(=O)[C@@]2(c3cc(C#CCNC(N)=O)ccc31)[C@H](c1ccc(OCCO)cc1)N1[C@H](c3ccccc3)[C@H](c3ccccc3)OC(=O)[C@H]1[C@@H]2C(=O)N1CCc2cc(OC)c(OC)cc2C1', 'composite z-score', 0.327),
  ('O=C(O)[C@@]1(Cc2ccccc2)N=C(c2ccc(OCCCO)cc2)O[C@H]1c1ccccc1', 'composite z-score', -0.126),
  ('COCC1=C2[C@@H](CCc3ccccc3)OB(O)C[C@@H]2[C@@H]2C(=O)N(Cc3ccccc3)C(=O)[C@@H]2C1', 'composite z-score', -0.201),
  ('[N-]=[N+]=NCc1ccccc1[C@H]1OC(c2ccc(OCCCO)cc2)=N[C@@]1(CCS(=O)(=O)c1ccccc1)C(=O)N1CCOCC1', 'composite z-score', -0.0391);

Qu. Tell me the measured composite z-score of Cc1ccc(F)cc1S(=O)(=O)N[C@@H]1CCN(Cc2ccc(-c3ccccc3)cc2)C1 , please.
Ans. 0.107

Qu. Can you share its composite z-score? I mean this compound: CN1C(=O)C2C=CC(C(O)c3ccccn3)N(Nc3ccccc3)C2C1=O (stereo not given)
Ans. 0.176

Qu. Which composite z-score is listed for [N-]=[N+]=NCc1ccccc1[C@@H]1OC(c2ccc(OCCCO)cc2)=N[C@]1(Cc1ccccc1)C(=O)N1CCCCC1 ?
Ans. 0.212

Qu. For the compound shown here, [N-]=[N+]=NCc1ccccc1C[C@]1(C(=O)O)N=C(c2ccc(OCCCO)cc2)O[C@H]1c1ccccc1CN=[N+]=[N-] , give the reported composite z-score.
Ans. -0.239

Qu. Need composite z-score, item COC(=O)[C@@]1(Cc2ccc(OC)cc2)[C@H]2c3cc(C(=O)N4CCCC4)n(CCc4c[nH]c5cc(F)ccc45)c3C[C@H]2CN1C(=O)c1ccccc1
Ans. 0.28

Qu. Which composite z-score value belongs to COC(=O)[C@]1(Cc2ccccc2N=[N+]=[N-])N=C(c2ccc(OCCCO)cc2)O[C@@H]1c1ccccc1N=[N+]=[N-] ?
Ans. -0.0994

Qu. Quick one: composite z-score for COc1ccc(C#Cc2ccc3c(c2)[C@]2(C(=O)N3)[C@H](c3ccc(O)cc3)N3[C@H](c4ccccc4)[C@H](c4ccccc4)OC(=O)[C@H]3[C@@H]2C(=O)N2CCCCCCC2)cc1 ?
Ans. 0.0914

Qu. What composite z-score value was documented for this compound, CCOC(=O)[C@H]1C[C@H]2O[C@@]23C[C@H]1C(=O)N1CCCC1[C@@H]3O[Si](C)(C)C(C)(C)C (stereo not given in full) ?
Ans. 0.0274

Qu. Given the entry COCCOC(=O)N1C(=O)[C@@]2(c3cc(C#CCNC(N)=O)ccc31)[C@H](c1ccc(O)cc1)N1[C@H](c3ccccc3)[C@H](c3ccccc3)OC(=O)[C@H]1[C@@H]2C(=O)NC[C@H](O)c1ccccc1 , report its measured composite z-score.
Ans. 0.127

----------
tested on: Sonic hedgehog protein (Shh); assay: small-molecule binders of Shh protein, primary screen, biochemical, small-molecule microarray, 635/667 nm fluorescence (AID 1151); details: small-molecule microarray binding, 635 nm fluorescence; higher = more signal;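 further: Shh protein binding to compounds spotted on small-molecule microarray slides; score combines spot fluorescence intensity with signal-to-noise across triplicate slides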
Please use Satisfied whenever composite z-score is not below -0.2, and Not satisfied whenever it is.

See these solved cases before continuing.
INSERT INTO measurements (molecule, system_name, group_label) VALUES
  ('Cc1ccc(S[C@]2(C(=O)NCc3ccccc3)CC(=O)N(Cc3ccccc3)[C@@H]2c2ccc(CO)cc2)cc1', 'Sonic hedgehog protein (Shh)', 'Not satisfied'),
  ('COc1ccc(C(=O)Nc2cccc(CN3C(=O)[C@]4(O[C@H](CC(=O)N5CCC[C@H]5CO)[C@@H]([Si](C)(C)c5ccc(OC)cc5)[C@@H]4C)c4ccccc43)c2)cc1', 'Sonic hedgehog protein (Shh)', 'Satisfied'),
  ('C=CCNC(=O)[C@@H]1[C@H]2C(=O)O[C@H](c3ccccc3)[C@H](c3ccccc3)N2[C@H](c2ccc(O)cc2)[C@@]12C(=O)N(C(=O)OCCOC)c1ccccc12', 'Sonic hedgehog protein (Shh)', 'Satisfied'),
  ('O=C1C2C=CC(C(O)c3ccc(F)cc3)N(Nc3ccccc3)C2C(=O)N1c1ccccc1 (stereo not given)', 'Sonic hedgehog protein (Shh)', 'Not satisfied'),
  ('Cc1ccccc1C(O)C1C=CC2C(=O)N(C)C(=O)C2N1N1CCCCC1 (stereo not given)', 'Sonic hedgehog protein (Shh)', 'Satisfied');

Qu. For this molecule, is measured composite z-score -0.2 or higher? CCOC(=O)C[C@H]1[C@H](OC(=O)c2ccccc2-c2ccccc2)[C@@H](NC(=O)Cc2ccc(OC)cc2)c2cc(OCCCO)ccc2N1C(=O)c1ccccc1
Ans. Satisfied

Qu. Reported composite z-score reaches at least -0.2 for CCCNC(=O)[C@@H]1c2ccccc2C(=O)N(Cc2ccccc2)[C@H]1c1ccc(CO)cc1 ?
Ans. Not satisfied

Qu. Is composite z-score at least -0.2? Consider O=C1O[C@H](c2ccccc2)[C@H](c2ccccc2)N2[C@H]1[C@@H](C(=O)O)[C@]1(C(=O)Nc3ccc(C#CC4(O)CCCCCC4)cc31)[C@H]2c1ccc(OCCO)cc1
Ans. Satisfied

Qu. Does composite z-score meet or surpass -0.2 for CC(C)NC(=O)[C@@H]1c2ccccc2C(=O)N(Cc2ccccc2)[C@H]1c1ccc(CO)cc1 ?
Ans. Satisfied

Qu. Does the molecule C[C@]1(C(=O)NCc2ccccc2)c2ccccc2C(=O)N(Cc2cc(F)cc(C(F)(F)F)c2)[C@H]1c1ccc(CO)cc1 have recorded composite z-score that is -0.2 or more?
Ans. Not satisfied

Qu. Kindly determine if composite z-score recorded for COC(=O)[C@@]1(Cc2ccc(F)cc2)[C@H]2c3cc(C(=O)N(C)C)n(CCc4ccccn4)c3C[C@H]2CN1C(=O)c1ccccc1 is above or exactly -0.2.
Ans. Satisfied

----------
Form field: z-score (one value per entry).
assay: PSAC antagonists in infected red cells, primary screen, cell-based, P. falciparum Indochina, OD700, 18 h (AID 1157); settings: P. falciparum Indochina infected erythrocytes, osmotic lysis OD700, 18 h; higher = more signal, called active from +8 up or from −8 down
Enter the number alone.

Some entries whose results are on file:
INSERT INTO measurements (compound, reading) VALUES
  ('COc1ccc([Si](C)(C)[C@H]2[C@H](CCn3cc(CCO)nn3)O[C@@]3(C(=O)N(Cc4ccc(N5CCOC5=O)cc4)c4ccccc43)[C@@H]2C)cc1', 6.01),
  ('Cc1ccc([C@H]2C(C(=O)O)=C[C@@H](C)N2S(=O)(=O)c2ccc(C)cc2)cc1', 0.39),
  ('O=c1cccc(C=Cc2ccccc2)o1', 0.931),
  ('COCCOC(=O)N1C(=O)[C@@]2(c3cc(C#CC4(O)CCCCCC4)ccc31)[C@H](C(=O)N1CCCCCCC1)[C@H]1C(=O)O[C@H](c3ccccc3)[C@H](c3ccccc3)N1[C@@H]2c1ccccc1OCCO', 1.07),
  ('COCCOC(=O)N1C(=O)[C@@]2(c3ccccc31)[C@H](c1ccc(O)cc1)N1[C@H](c3ccccc3)[C@H](c3ccccc3)OC(=O)[C@H]1[C@@H]2C(=O)N1CCc2cc(OC)c(OC)cc2C1', -1),
  ('CCOC(=O)C[C@H]1[C@H](OC(=O)Cc2ccc3c(c2)OCO3)[C@@H](NC(=O)C2CCCCC2)c2cc(OCCCO)ccc2N1C(=O)Cc1ccc(OC)cc1', -0.911);

Please look at the following compound next.
Qu. Sample COC(=O)C1=CC(CCCO)=CC(C2CC2)N(Cc2sc3ccccc3c2Cl)C=C1C(=O)OC (configuration not stated) — what was its z-score?
Ans. 1.23

----------
target: Epidermal growth factor receptor (Homo sapiens) (UniProt P00533); experiment: EGFR binders on small-molecule microarrays, primary screen, biochemical, small-molecule microarray, 635 nm fluorescence (AID 1104); details: EGFR binding, higher = more signal;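 further: score merges 667 nm emission intensity with spot signal to noise over triplicate slides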
Sequence (P00533 whole entry, looked up): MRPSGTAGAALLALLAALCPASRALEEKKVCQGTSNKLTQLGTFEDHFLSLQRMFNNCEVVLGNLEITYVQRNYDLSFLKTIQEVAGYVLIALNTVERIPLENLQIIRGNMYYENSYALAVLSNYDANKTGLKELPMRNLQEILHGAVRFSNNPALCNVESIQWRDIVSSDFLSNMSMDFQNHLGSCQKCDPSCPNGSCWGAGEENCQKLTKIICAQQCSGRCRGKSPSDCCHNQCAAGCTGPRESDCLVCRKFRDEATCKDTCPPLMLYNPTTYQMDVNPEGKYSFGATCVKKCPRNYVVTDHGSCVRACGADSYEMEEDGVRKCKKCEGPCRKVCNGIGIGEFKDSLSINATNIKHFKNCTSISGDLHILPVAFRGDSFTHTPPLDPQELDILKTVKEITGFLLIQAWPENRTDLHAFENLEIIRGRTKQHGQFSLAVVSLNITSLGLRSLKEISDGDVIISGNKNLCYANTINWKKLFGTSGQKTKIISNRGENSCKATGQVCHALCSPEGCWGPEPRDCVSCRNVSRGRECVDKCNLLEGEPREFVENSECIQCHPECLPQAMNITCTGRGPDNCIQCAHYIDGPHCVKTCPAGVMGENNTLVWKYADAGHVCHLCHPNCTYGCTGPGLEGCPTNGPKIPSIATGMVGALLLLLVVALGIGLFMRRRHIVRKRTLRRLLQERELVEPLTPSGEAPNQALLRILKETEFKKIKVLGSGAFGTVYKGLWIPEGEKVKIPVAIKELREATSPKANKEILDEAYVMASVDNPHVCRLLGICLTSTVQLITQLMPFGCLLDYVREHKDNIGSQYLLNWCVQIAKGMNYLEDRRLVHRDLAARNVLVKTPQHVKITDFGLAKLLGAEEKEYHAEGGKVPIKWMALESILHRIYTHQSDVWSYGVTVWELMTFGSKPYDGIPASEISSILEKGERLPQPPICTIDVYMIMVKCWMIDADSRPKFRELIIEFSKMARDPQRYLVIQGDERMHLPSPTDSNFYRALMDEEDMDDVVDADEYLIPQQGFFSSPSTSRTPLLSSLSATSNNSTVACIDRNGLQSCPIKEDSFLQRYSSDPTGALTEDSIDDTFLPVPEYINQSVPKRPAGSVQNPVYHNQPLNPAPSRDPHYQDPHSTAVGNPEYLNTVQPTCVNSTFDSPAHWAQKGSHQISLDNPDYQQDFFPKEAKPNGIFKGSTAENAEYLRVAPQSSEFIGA
measured.endpoint: composite z-score
# respond with the number and nothing more

Solved entries (count: 3):
INSERT INTO results (chemical_string, reading) VALUES
  ('O=C1[C@]2(CO)C=C(Br)[C@@H](C[C@@H]2c2ccccc2)[C@@]12CO2', -0.135),
  ('C[C@]1(C(=O)NCc2ccccc2)c2ccccc2C(=O)N(Cc2ccc(OC(F)(F)F)cc2)[C@H]1c1ccc(CO)cc1', -0.535),
  ('O=c1cccc(C=Cc2ccccc2)o1', -1.16);

Then this compound:
Qu. Look up composite z-score for this compound: COCCOC(=O)N1C(=O)[C@@]2(c3cc(C#CC4=CCCCC4)ccc31)[C@H](C(=O)N1CCc3cc(OC)c(OC)cc3C1)[C@H]1C(=O)O[C@H](c3ccccc3)[C@H](c3ccccc3)N1[C@@H]2c1ccccc1OCCO
Ans. 0.501
